# MEASURED_TARGET: human PD-L1 (human, UniProt Q9NZQ7 19-290)
# Sequence (Q9NZQ7 19-290): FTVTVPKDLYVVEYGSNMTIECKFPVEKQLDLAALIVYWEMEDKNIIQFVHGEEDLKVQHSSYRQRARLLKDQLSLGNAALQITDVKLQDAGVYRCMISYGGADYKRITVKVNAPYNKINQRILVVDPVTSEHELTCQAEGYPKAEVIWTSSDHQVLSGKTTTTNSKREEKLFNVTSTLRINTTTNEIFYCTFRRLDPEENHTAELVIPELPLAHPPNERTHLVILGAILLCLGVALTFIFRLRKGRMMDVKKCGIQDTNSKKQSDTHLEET
# TEST_NAME: cell-based or functional assay
Measured RLU, Jurkat/IL2 + CHO/OKT3/PD-L1 Reporter Assay, CD80 Conc 5.0 nM, listed per entry.
QUANTITY_NAME: RLU, Jurkat/IL2 + CHO/OKT3/PD-L1 Reporter Assay, CD80 Conc 5.0 nM

BINDER	ASSAY_VALUE
CD80 E35D/D46V/M47L/V68M/L85Q/E88D IgV-Fc, GS(G4S)5 linker (Fc fusion, not shown: a dimerising Fc or GST) VIHVTKEVKEVATLSCGHNVSVEELAQTRIYWQKDKKMVLTMMSGVLNIWPEYKNRTIFDITNNLSIMILALRPSDEGTYECVVQKYDKDAFKREHLAEVTLSVKADGSGGGGSGGGGSGGGGSGGGGSGGGGS	2050 RLU
CD80 E35D/D46V/M47L/V68M/L85Q/E88D IgV-Fc, EAAAK linker (Fc fusion, not shown: a dimerising Fc or GST) VIHVTKEVKEVATLSCGHNVSVEELAQTRIYWQKDKKMVLTMMSGVLNIWPEYKNRTIFDITNNLSIMILALRPSDEGTYECVVQKYDKDAFKREHLAEVTLSVKADEAAAK	1460 RLU
CD80 E35D/D46V/M47L/V68M/L85Q/E88D IgV-Fc, (EAAAK)3 linker (Fc fusion, not shown: a dimerising Fc or GST) VIHVTKEVKEVATLSCGHNVSVEELAQTRIYWQKDKKMVLTMMSGVLNIWPEYKNRTIFDITNNLSIMILALRPSDEGTYECVVQKYDKDAFKREHLAEVTLSVKADEAAAKEAAAKEAAAK	2050 RLU
CD80 E35D/D46V/M47L/V68M/L85Q/E88D IgV-Fc, delta linker (Fc fusion, Fused directly to the Fc with no additional linker; also called E35D/D46V/M47L/V68M/L85Q/E88D delta) VIHVTKEVKEVATLSCGHNVSVEELAQTRIYWQKDKKMVLTMMSGVLNIWPEYKNRTIFDITNNLSIMILALRPSDEGTYECVVQKYDKDAFKREHLAEVTLSVKTHTCPPCPAPEAEGAPSVFLFPPKPKDTLMISRTPEVTCVVVDVSHEDPEVKFNWYVDGVEVHNAKTKPREEQYNSTYRVVSVLTVLHQDWLNGKEYKCKVSNKALPAPIEKTISKAKGQPREPQVYTLPPSREEMTKNQVSLTCLVKGFYPSDIAVEWESNGQPENNYKTTPPVLDSDGSFFLYSKLTVDKSRWQQGNVFSCSVMHEALHNHYTQKSLSLSPG	1080 RLU
wild-type CD80 IgV-Fc (inert) with GSG4S linker, Example 16 (Fc fusion, also called CD80 WT IgV-Fc) VIHVTKEVKEVATLSCGHNVSVEELAQTRIYWQKEKKMVLTMMSGDMNIWPEYKNRTIFDITNNLSIVILALRPSDEGTYECVVLKYEKDAFKREHLAEVTLSVKADGSGGGGSEPKSSDKTHTCPPCPAPEAEGAPSVFLFPPKPKDTLMISRTPEVTCVVVDVSHEDPEVKFNWYVDGVEVHNAKTKPREEQYNSTYRVVSVLTVLHQDWLNGKEYKCKVSNKALPAPIEKTISKAKGQPREPQVYTLPPSREEMTKNQVSLTCLVKGFYPSDIAVEWESNGQPENNYKTTPPVLDSDGSFFLYSKLTVDKSRWQQGNVFSCSVMHEALHNHYTQKSLSLSPG	390 RLU
CD80 E35D/M47V/N48K/V68M/K89N IgV-Fc, delta linker (Fc fusion, Fused directly to the Fc with no additional linker; also called E35D/M47V/N48K/V68M/K89N delta) VIHVTKEVKEVATLSCGHNVSVEELAQTRIYWQKDKKMVLTMMSGDVKIWPEYKNRTIFDITNNLSIMILALRPSDEGTYECVVLKYENDAFKREHLAEVTLSVKTHTCPPCPAPEAEGAPSVFLFPPKPKDTLMISRTPEVTCVVVDVSHEDPEVKFNWYVDGVEVHNAKTKPREEQYNSTYRVVSVLTVLHQDWLNGKEYKCKVSNKALPAPIEKTISKAKGQPREPQVYTLPPSREEMTKNQVSLTCLVKGFYPSDIAVEWESNGQPENNYKTTPPVLDSDGSFFLYSKLTVDKSRWQQGNVFSCSVMHEALHNHYTQKSLSLSPG	1030 RLU
CD80 E35D/M47V/N48K/V68M/K89N IgV-Fc, EAAAK linker (Fc fusion, not shown: a dimerising Fc or GST) VIHVTKEVKEVATLSCGHNVSVEELAQTRIYWQKDKKMVLTMMSGDVKIWPEYKNRTIFDITNNLSIMILALRPSDEGTYECVVLKYENDAFKREHLAEVTLSVKADEAAAK	1710 RLU
